Values compiled from patent US4409210A.

Overview of recorded MIC for various compounds
tested on: Staphylococcus aureus Smith; assay: MIC, serial two-fold dilution method (aerobic); type: cell-based; details: Staphylococcus aureus Smith; Mueller-Hinton agar; inoculum 10^4; read-out: minimum inhibitory concentration (MIC)
Quick reminder: number only, in µg/mL, skip the unit.

O=C(N[C@H](CO)[C@H](O)c1ccc([N+](=O)[O-])cc1)C(Cl)Cl [Chloramphenicol] | 3.1

[ask] Staphylococcus aureus Smith / MIC / CC1(C)S[C@@H]2[C@H](NC(=O)[C@H](N)c3ccccc3)C(=O)N2[C@H]1C(=O)O [Ampicillin] : value?
[reply] 0.05

[ask] Find MIC (Staphylococcus aureus Smith) for the entry CC[C@H]1OC(=O)[C@H](C)[C@@H](O[C@H]2C[C@@](C)(OC)[C@@H](O)[C@H](C)O2)[C@H](C)[C@@H](O[C@@H]2O[C@H](C)C[C@H](N(C)C)[C@H]2O)[C@](C)(O)C[C@@H](C)C(=O)[C@H](C)[C@@H](O)[C@]1(C)O [Erythromycin]
[reply] 0.2

[ask] Query the reported MIC for Staphylococcus aureus Smith; item: NC[C@H]1O[C@H](O[C@H]2[C@H](O)[C@@H](O[C@H]3O[C@H](CO)[C@@H](O)[C@H](N)[C@H]3O)[C@H](N)C[C@@H]2N)[C@H](O)[C@@H](O)[C@@H]1O [Kanamycin]
[reply] 0.4

* * *

MIC listing for selected compounds.
tested on: Clostridium perfringens A9635; assay: microbe, parasite or virus in culture; type: cell-based; details: Clostridium perfringens, A9635, read-out: minimum inhibitory concentration (MIC)
Note: unit µg/mL is implicit; provide only the numeric part.

Previously resolved entries follow.
CC[C@H]1OC(=O)[C@H](C)[C@@H](O[C@H]2C[C@@](C)(OC)[C@@H](O)[C@H](C)O2)[C@H](C)[C@@H](O[C@@H]2O[C@H](C)C[C@H](N(C)C)[C@H]2O)[C@](C)(O)C[C@@H](C)C(=O)[C@H](C)[C@@H](O)[C@]1(C)O [Erythromycin] | 0.8
CC1(C)S[C@@H]2[C@H](NC(=O)[C@H](N)c3ccccc3)C(=O)N2[C@H]1C(=O)O [Ampicillin] | 0.2

Shift focus to the following entry.
[ask] Consider the compound shown here: O=C(N[C@H](CO)[C@H](O)c1ccc([N+](=O)[O-])cc1)C(Cl)Cl [Chloramphenicol] What is its recorded MIC?
[reply] 3.1

* * *

system: Peptostreptococcus anaerobius A21905; test: MIC, serial two-fold dilution method (anaerobic); type: cell-based; conditions: Peptostreptococcus anaerobius A21905; GAM agar medium; inoculum 10^7-10^8; read-out: minimum inhibitory concentration (MIC)
property name: MIC (mg/L)
Field format: number, assumed mg/L, no unit text.

Here's what some known entries look like.
CC1(C)S[C@@H]2[C@H](NC(=O)[C@H](N)c3ccccc3)C(=O)N2[C@H]1C(=O)O | 0.1
CC[C@H]1OC(=O)[C@H](C)[C@@H](O[C@H]2C[C@@](C)(OC)[C@@H](O)[C@H](C)O2)[C@H](C)[C@@H](O[C@@H]2O[C@H](C)C[C@H](N(C)C)[C@H]2O)[C@](C)(O)C[C@@H](C)C(=O)[C@H](C)[C@@H](O)[C@]1(C)O | 0.8
O=C(N[C@H](CO)[C@H](O)c1ccc([N+](=O)[O-])cc1)C(Cl)Cl | 1.6

Please turn your attention to the following entry.
[ask] Need MIC of CCC[C@@H]1C[C@@H](C(=O)N[C@@H]([C@H]2O[C@H](SC)[C@H](O)[C@@H](O)[C@H]2O)[C@H](C)Cl)N(C)C1 , thanks.
[reply] 0.2
